Value source: patent US20240101645A1

Molecular target: T1, HCoV-229E spike antigens (bead panel) (HCoV-229E, UniProt P15423 16-1115)
T1 sequence: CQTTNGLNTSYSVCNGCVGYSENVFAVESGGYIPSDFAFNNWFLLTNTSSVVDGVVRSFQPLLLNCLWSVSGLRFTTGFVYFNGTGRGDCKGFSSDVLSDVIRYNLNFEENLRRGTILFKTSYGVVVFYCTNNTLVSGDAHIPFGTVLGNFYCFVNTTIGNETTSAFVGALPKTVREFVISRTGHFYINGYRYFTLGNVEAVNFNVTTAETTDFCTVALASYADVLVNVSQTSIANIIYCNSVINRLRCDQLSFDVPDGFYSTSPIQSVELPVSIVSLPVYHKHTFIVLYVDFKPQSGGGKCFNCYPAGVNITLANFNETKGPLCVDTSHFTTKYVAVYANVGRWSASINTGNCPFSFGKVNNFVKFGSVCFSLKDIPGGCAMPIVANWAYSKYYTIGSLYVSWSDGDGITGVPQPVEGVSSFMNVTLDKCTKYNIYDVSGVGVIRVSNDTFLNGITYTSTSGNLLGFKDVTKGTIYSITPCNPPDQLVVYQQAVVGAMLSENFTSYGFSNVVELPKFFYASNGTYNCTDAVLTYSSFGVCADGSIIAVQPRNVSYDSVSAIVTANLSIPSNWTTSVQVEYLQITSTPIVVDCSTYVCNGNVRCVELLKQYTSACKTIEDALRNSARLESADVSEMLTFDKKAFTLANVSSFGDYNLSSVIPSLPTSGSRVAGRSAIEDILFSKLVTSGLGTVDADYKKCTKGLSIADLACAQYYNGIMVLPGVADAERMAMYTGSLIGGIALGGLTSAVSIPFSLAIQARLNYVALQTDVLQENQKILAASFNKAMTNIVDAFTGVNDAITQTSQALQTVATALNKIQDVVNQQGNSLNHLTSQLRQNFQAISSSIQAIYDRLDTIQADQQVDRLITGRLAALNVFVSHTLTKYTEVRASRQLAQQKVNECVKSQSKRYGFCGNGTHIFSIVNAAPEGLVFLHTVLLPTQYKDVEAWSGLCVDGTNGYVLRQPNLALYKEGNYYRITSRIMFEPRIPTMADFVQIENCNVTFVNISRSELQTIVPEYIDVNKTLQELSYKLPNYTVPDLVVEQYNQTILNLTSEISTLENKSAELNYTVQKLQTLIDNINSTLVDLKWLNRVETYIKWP
Experiment: multiplex bead assay
QUANTITY_NAME: binding result

INSERT INTO assay_data (binder, quantity_name, reading) VALUES
  ('COV_2025 (antibody, V domains shown, human IgG1) VH: QVHLVQSGAEVKKPGASVKVSCKVSGYTLVELSVHWVRQAPAKGLEWIGGFDPEDGETIYAQKFQGRVTMTEDTSTDTAYMELTNLRSEDTAVYYCVTSQPFVSPNWFDPWGQGTLVTVSS VL: QSALTQPASVSGSPGQSITISCTGTSRDVGAYNYVSWYQQHPGKAPKLMIYEVTTRPSGVSNRFSGSKSGNTASLTISGLQAEDEADYYCSSYTGSRTLVFGTGTKVTVL', 'binding result', 'no binding'),
  ('COV_3129 (antibody, V domains shown, human IgG1) VH: QVQLQQWGAGLLKPSDTLSLTCAANGGGSFSGYYLGYIRQSPGKGLEWIGEINHNGGTNYNPSLKSRVTISGDTSKNQFSLKLSSVTAADTAIYYCARSRDSSLGDAVWYEYWGQGTLITVSS VL: EIVLTQSPATLSLSPGERATLSCRASQSVDIYLAWYQQRPGQAPRLLISDASKRATGVPARFSGSGSGTDFTLTINSLEPEDFAIYYCQQRRDWPINFGQGTRLEIKR', 'binding result', 'no binding'),
  ('COV_1172 (antibody, V domains shown, human IgG1) VH: QVQLQESGPGLVKPSETLSLTCTVSGGSIRSYYWSWIRQPPGKGLEWIGYIYYSGSTNYSPSLKSRVTISVDTSKNQFSLKLNSVTAADTAVYYCARRGLGYCSGDSCSNAFDIWGQGTMVTVSS VL: DIQMTQSPSSLSASVGDRVTITCRASQSISSYLNWYQQKPGRAPELLIYDASSLQSGVPSGFSGSGSGTDFTLTISSLQPEDFATYYCQQSYSTPFTFGPGTKVDIKR', 'binding result', 'no binding');
